- Tested on: Staphylococcus aureus ATCC 25923
- Assay type: cell-based
- Condition info: ATCC 25923
- Protocol: The bacterial strains used were: Escherichia coli ATCC 25922 and Staphylococcus aureus ATCC 25923. All strains were stored at −70° C. The bacteria were grown in 2% Bacto Peptone water (Difco 1807-17-4). All tests were performed with bacteria in mid-logarithmic growth phase. Determination of the minimum inhibitory concentration (MIC) of the peptides for bacterial strains were performed in 1% Bacto Peptone water. A standard microdilution technique with an inoculum of 2×10^6 CFU/ml was used. […]
Square brackets hold non-standard residues; d marks the D form. Peptide text beside a SMILES is read from it. * marks the point of attachment. Trp(2-Pmc) = Cc1c(C)c(S(=O)(=O)c2[nH]c3ccccc3c2C[C@H](N)C(=O)O)c(C)c2c1OC(C)(C)CC2; Acm = CC(=O)NC*
Could you mark each record yes if its MIC S. aureus falls strictly under 20 µg/mL, and no if it equals or exceeds it?

{"Compound": "CC(=O)NCSC[C@H](NC(=O)[C@H](CCCCN)NC(=O)[C@@H](N)Cc1ccccc1)C(=O)N[C@@H](Cc1c[nH]c2ccccc12)C(=O)N[C@@H](CCCNC(=N)N)C(=O)N[C@@H](Cc1c[nH]c2ccccc12)C(=O)N[C@@H](CCC(N)=O)C(=O)N[C@@H](Cc1c[nH]c2ccccc12)C(=O)N[C@@H](CCCNC(=N)N)C(=O)N[C@@H](Cc1c[nH]c2ccccc12)C(=O)N[C@@H](CCCCN)C(=O)N[C@@H](CCCCN)C(=O)N[C@@H](CC(C)C)C(=O)NCC(=O)N[C@@H](C)C(=O)O [LFB W4, 10] (H-FKC(Acm)WRWQWRWKKLGA-OH)", "Classification": "yes"}
{"Compound": "CSCC[C@H](NC(=O)[C@H](CCCNC(=N)N)NC(=O)[C@H](Cc1c(S(=O)(=O)c2c(C)c(C)c3c(c2C)CCC(C)(C)O3)[nH]c2ccccc12)NC(=O)[C@H](CCC(N)=O)NC(=O)[C@H](C)NC(=O)[C@H](CCCNC(=N)N)NC(=O)[C@H](CCCNC(=N)N)NC(=O)[C@H](CSCNC(C)=O)NC(=O)[C@H](CCCCN)NC(=O)[C@@H](N)Cc1ccccc1)C(=O)N[C@@H](CCCCN)C(=O)N[C@@H](CCCCN)C(=O)N[C@@H](CC(C)C)C(=O)NCC(=O)N[C@@H](C)C(=O)O [LFB A6 PMC] (H-FKC(Acm)RRAQ[Trp(2-Pmc)]RMKKLGA-OH)", "Classification": "yes"}
{"Compound": "C[C@@H](NC(=O)[C@H](CCCNC(=N)N)NC(=O)[C@H](N)Cc1ccc(O)cc1)C(=O)N[C@@H](Cc1c[nH]c2ccccc12)C(=O)N[C@H](CCCNC(=N)N)C(=O)N[C@@H](Cc1c[nH]c2ccccc12)C(=O)N[C@H](C)C(=O)N[C@@H](Cc1c[nH]c2ccccc12)C(=O)N[C@H](CCCNC(=N)N)C(=O)N[C@@H](Cc1c[nH]c2ccccc12)C(=O)N[C@H](CCCNC(=N)N)C(N)=O (H-[dY]R[dA]W[dR]W[dA]W[dR]W[dR]-NH2; N-terminus assumed)", "Classification": "yes"}
{"Compound": "CSCC[C@H](NC(=O)[C@H](CCCNC(=N)N)NC(=O)[C@H](Cc1c[nH]c2ccccc12)NC(=O)[C@H](C)NC(=O)[C@H](Cc1c[nH]c2ccccc12)NC(=O)[C@H](CCCNC(=N)N)NC(=O)[C@H](CCCNC(=N)N)NC(=O)[C@H](C)NC(=O)[C@H](CCCCN)NC(=O)[C@H](Cc1ccccc1)NC(=O)[C@H](Cc1c[nH]c2ccccc12)NC(=O)[C@H](C)NC(=O)[C@@H]1CCCN1)C(=O)N[C@@H](CCCCN)C(=O)N[C@@H](CCCCN)C(=O)N[C@@H](CC(C)C)C(=O)N[C@@H](C)C(=O)N[C@@H](C)C(=O)O", "Classification": "yes"}
{"Compound": "CSCC[C@H](NC(=O)[C@H](CCC(=O)O)NC(=O)[C@H](Cc1c[nH]c2ccccc12)NC(=O)[C@H](CCC(N)=O)NC(=O)[C@H](Cc1c[nH]c2ccccc12)NC(=O)[C@H](CCCNC(=N)N)NC(=O)[C@H](CC(C)C)NC(=O)[C@H](CSCNC(C)=O)NC(=O)[C@H](CCCCN)NC(=O)[C@@H](N)CCCNC(=N)N)C(=O)N[C@@H](CCCNC(=N)N)C(=O)N[C@@H](CCCCN)C(=O)N[C@H](C(=O)NCC(=O)NCC(=O)O)C(C)C [LFM R1, W8] (H-RKC(Acm)LRWQWEMRKVGG-OH; N-terminus assumed)", "Classification": "no"}
{"Compound": "CSCC[C@H](NC(=O)[C@H](C)NC(=O)[C@H](Cc1c[nH]c2ccccc12)NC(=O)[C@H](CCC(N)=O)NC(=O)[C@H](Cc1c[nH]c2ccccc12)NC(=O)[C@H](CCCNC(=N)N)NC(=O)[C@H](CC(C)C)NC(=O)[C@H](CSCNC(C)=O)NC(=O)[C@H](CCCCN)NC(=O)[C@@H](N)CCC(=O)O)C(=O)N[C@@H](CCCNC(=N)N)C(=O)N[C@@H](CCCCN)C(=O)N[C@H](C(=O)NCC(=O)NCC(=O)O)C(C)C [LFM A9 W8] (H-EKC(Acm)LRWQWAMRKVGG-OH; N-terminus assumed)", "Classification": "no"}
{"Compound": "CSCC[C@H](NC(=O)[C@H](C)NC(=O)[C@H](Cc1c[nH]c2ccccc12)NC(=O)[C@H](CCC(N)=O)NC(=O)[C@H](Cc1c[nH]c2ccccc12)NC(=O)[C@H](CCCNC(=N)N)NC(=O)[C@H](CCCNC(=N)N)NC(=O)[C@H](CSCNC(C)=O)NC(=O)[C@H](CCCCN)NC(=O)[C@@H](N)Cc1ccccc1)C(=O)N[C@@H](CCCCN)C(=O)N[C@@H](CCCCN)C(=O)N[C@@H](CC(C)C)C(=O)NCC(=O)N[C@@H](C)C(=O)O [LFB A9] (H-FKC(Acm)RRWQWAMKKLGA-OH)", "Classification": "no"}
{"Compound": "CSCC[C@H](NC(=O)[C@H](CCCNC(=N)N)NC(=O)[C@H](Cc1c(S(=O)(=O)c2c(C)c(C)c3c(c2C)CCC(C)(C)O3)[nH]c2ccccc12)NC(=O)[C@H](CCC(N)=O)NC(=O)[C@H](Cc1c[nH]c2ccccc12)NC(=O)[C@H](CCCNC(=N)N)NC(=O)[C@H](CCCNC(=N)N)NC(=O)[C@H](CSCNC(C)=O)NC(=O)[C@H](CCCCN)NC(=O)[C@@H](N)Cc1ccccc1)C(=O)N[C@@H](CCCCN)C(=O)N[C@@H](CCCCN)C(=O)N[C@@H](CC(C)C)C(=O)NCC(=O)N[C@@H](C)C(=O)O", "Classification": "yes"}

Recorded values, source patent US20030022821A1.
